- Tested on: MS2 coat protein
- assay-info: apparent Kd, MS2 coat protein; higher = weaker binding; RNA-MaP array
- reported-conditions: designed as: OFF switch for flavin mononucleotide; no ligand
Reported apparent Kd values for a set of sequences
quantity-kind: apparent Kd (µM)

[[record]]
sequence_entry = "GGUACGGCAGGAUAUGGCCUGGACUACAUGAGGAUCACCCAUGUCUUGCAGAAUGUCUAGCCAGAAGGGCCAUGAA"
readout_number = 0.0146

[[record]]
sequence_entry = "AACAAGGACAGAGGAUAUAUCAACAUUGAAGUAAUAGAAGGCUGAGAGAAUGAGACUCAUAAACAUGAGGAUCACCCAUGUAAC"
readout_number = 0.0822

[[record]]
sequence_entry = "UUUGAAAAGCAGAAGGUUCAUAACAUGAGGAUCACCCAUGUGACAUUAAUGAUCCGGUUUUUACGAAAGGAUAUGCUUCUCCUA"
readout_number = 0.00833

[[record]]
sequence_entry = "CGGUCACAUGAGGAUCACCCAUGUAAGGAUAUAGAUGUCUGUGUCAACCGACGGGCUUCUAGAAGGUACGGAUG"
readout_number = 0.0186

[[record]]
sequence_entry = "AAUCAGAAAGGAUAUACAAGGAUUUUAUAUAGCACUGCUGGACAUGAGGAUCACCCAUGUAGAAGGUUCGCCCU"
readout_number = 0.0113

[[record]]
sequence_entry = "AUAGAGGAAGGAUAUACAUGAGGAUCACCCAUGUAACGAAGUAGUUGGAUGCCAUGAAGUAGAAGGUCCAGAUG"
readout_number = 0.0145

[[record]]
sequence_entry = "ACAUACGAACGAGGAUAUCUCCACAUGAGGAUCACCCAUGUUUGGGUCCGAUAGUAGCGUGCAAAAGAGAAGGCGUGUACAUCC"
readout_number = 0.0228

[[record]]
sequence_entry = "GAUGCAACGCAGAAGGUAACCCAAUUAGGAGAUCUACAUGAGGAUCACCCAUGUAUUUGGAAAAUUAAGGAUAUGCCGAGGAUC"
readout_number = 0.0147

[[record]]
sequence_entry = "UCCUUACACAUGAGGAUCACCCAUGUAUCCACAGGUUGAGGGCAGGAUAUACAUAAUUUGACCUUGUAGAAGGGCCUGACAAAA"
readout_number = 0.213

[[record]]
sequence_entry = "CCAGUUGACUAGAAGGCAAUACGGAUAAAGUAACUGACCACAUGAGGAUCACCCAUGUAUCCCAUUGAGGAUAUAGCAUUAAGU"
readout_number = 0.0442

[[record]]
sequence_entry = "AAAUUACACGAGAAGGGCAGUGAAUAUCUGUCUGCAGGAUAUCGCUACAUGAGGAUCACCCAUGUUUUCAGUAGUACUAGCGAA"
readout_number = 0.00974

[[record]]
sequence_entry = "GUUUUGGUACGAGGAUAUAAUGCCCUUGGAGAGUUAGAAGGCGUACGGGCUGUCCAUUAGAUACAUGAGGAUCACCCAUGUGAG"
readout_number = 0.0147

[[record]]
sequence_entry = "CCCACGUACGAGAAGGCACCGGUUUGAUCCACGUAAGUCCUUUACAUGAGGAUCACCCAUGUAGGUGAGGAUAUCGUCAUGACU"
readout_number = 0.16

[[record]]
sequence_entry = "AACAAGUAGGAGAAGGUAGAUGAGACUGUGCACUAAGGAUAUCCAUACAUGAGGAUCACCCAUGUCUGGACUAGUAUAUGGACA"
readout_number = 0.00574

[[record]]
sequence_entry = "GGAUAACCGAAGAAGGAGGUUUGUAUGGAAUACCUAGGAUAUUCGCGAGCGUGGGCCACAUGAGGAUCACCCAUGUCGGCAGUU"
readout_number = 0.0128

